Measured phosphorylation enrichment by item
System: c-Abl (mouse)
experiment: phosphorylation enrichment, bacterial display (enrichment ratio); higher = better substrate or ligand; peptides without Tyr show the background;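 note: 11-residue human phosphosite peptides and single-mutation variants displayed on the E. coli surface, counted by deep sequencing, each peptide's frequency after selection divided by its frequency in the unselected input library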;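 note: frequency after pTyr selection over input frequency; kinase dosed for 20-30% of maximal phosphorylation in three min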
Just the number, please.

# polymerSequence, phosphorylation enrichment
data = [
    ("GLIPAYHRVIM [NMNAT1_Y64]", 0.662),
]

Briefly, phosphorylation enrichment measured for KLIETYSSKNY [PLP1_Y50_F51S] : 0.591

In plain terms, PLQSEYSSITT [ITGB4_Y1760] has a documented phosphorylation enrichment of 1.28

* * *

targetOfAssay: Fyn (UniProt P06241)
Sequence (P06241 whole entry, looked up): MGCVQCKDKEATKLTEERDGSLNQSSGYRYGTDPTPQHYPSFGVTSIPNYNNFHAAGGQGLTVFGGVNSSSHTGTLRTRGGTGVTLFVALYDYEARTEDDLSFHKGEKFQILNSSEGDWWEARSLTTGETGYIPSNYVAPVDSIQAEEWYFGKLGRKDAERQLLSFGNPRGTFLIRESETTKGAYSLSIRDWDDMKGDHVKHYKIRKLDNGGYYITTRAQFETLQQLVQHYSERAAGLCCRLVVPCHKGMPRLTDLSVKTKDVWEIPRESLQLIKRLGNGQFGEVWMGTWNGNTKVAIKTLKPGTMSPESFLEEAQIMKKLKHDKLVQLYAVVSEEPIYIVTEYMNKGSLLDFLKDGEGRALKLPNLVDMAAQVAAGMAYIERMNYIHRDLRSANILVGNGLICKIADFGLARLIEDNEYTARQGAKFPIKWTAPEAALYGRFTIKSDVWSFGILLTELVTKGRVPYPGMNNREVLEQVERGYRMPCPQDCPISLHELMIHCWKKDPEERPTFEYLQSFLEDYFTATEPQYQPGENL
experiment: phosphorylation enrichment, bacterial display (enrichment ratio); higher = better substrate or ligand; peptides without Tyr show the background
measuredMetric: phosphorylation enrichment

Here are 3 sequences together with their reported answers.
# polymerSequence, measuredMetric, observedMeasurement
records = [
    ("LDMSQYFRLFN [CPT2_Y217]", "phosphorylation enrichment", 0.959),
    ("KNEVFYQCPDQ [FBXO3_Y223]", "phosphorylation enrichment", 1.03),
    ("KMKGEYFRFLA [YWHAG_Y130_D129E_YF]", "phosphorylation enrichment", 1.75),
]

Measured phosphorylation enrichment of GEFHVYRHLRR [PRKRIP1_Y82] : 0.484

Reported phosphorylation enrichment for YDYKKYGKGLR [ZNF445_Y433] was 0.323

# phosphorylation enrichment of GEEIKYMLWLL [OTC_Y55_S60L] = 0.5

Consider TLQIMYGCDVG [HLA-A_Y123_I119L] . Its measured phosphorylation enrichment is 0.528

phosphorylation enrichment in this record for TPRNTYKMTSL [MKI67_Y849] : 0.475

// EFISEFCGEII [EZH2_Y641_Y641F] : phosphorylation enrichment value = 0.507
